# ASSAYED SYSTEM: Delta-type opioid receptor (Rattus norvegicus, UniProt P33533)
# Sequence (P33533 whole entry): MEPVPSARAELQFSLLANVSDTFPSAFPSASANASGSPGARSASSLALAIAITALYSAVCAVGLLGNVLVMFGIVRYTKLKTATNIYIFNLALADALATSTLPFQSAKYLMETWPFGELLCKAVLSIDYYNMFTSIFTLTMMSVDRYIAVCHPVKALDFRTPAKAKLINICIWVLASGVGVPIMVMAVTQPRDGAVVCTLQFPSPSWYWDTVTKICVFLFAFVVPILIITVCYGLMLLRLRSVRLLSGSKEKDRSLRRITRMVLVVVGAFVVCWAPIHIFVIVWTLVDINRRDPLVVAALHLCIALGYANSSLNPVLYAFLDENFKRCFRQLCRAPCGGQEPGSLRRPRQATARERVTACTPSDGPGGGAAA
# ASSAY NAME: Displacement of [3H]deltorphin-2 from delta opioid receptor in Sprague-Dawley rat brain P2 synaptosomal membranes
Residues, ends and D or L forms follow the SMILES beside them.
PROPERTY MEASURED: pKi
# reply with the number alone; pKi is -log10 of concentration in mol/L

Example entries begin here.
COMPOUND	ASSAYED SYSTEM	pKi
Cc1cc(O)cc(C)c1C[C@H](N)C(=O)N1CCC[C@H]1C(=O)N[C@@H](Cc1ccccc1)C(=O)N[C@@H](Cc1ccc2ccccc2c1)C(N)=O (HELM PEPTIDE1{[Cc1cc(O)cc(C)c1C[C@H](N)C(=O)[*:2]].P.F.[O=C([C@H](Cc1ccc2ccccc2c1)N[*:1])[*:2]].[am]}$$$$V2.0)	Delta-type opioid receptor (Rattus norvegicus, UniProt P33533)	7.63
Cc1cc(O)cc(C)c1C[C@H](N)C(=O)N1CCC[C@H]1C(=O)N[C@@H](Cc1ccccc1)C(=O)N[C@@H](Cc1c[nH]c2ccccc12)C(N)=O (HELM PEPTIDE1{[Cc1cc(O)cc(C)c1C[C@H](N)C(=O)[*:2]].P.F.W.[am]}$$$$V2.0)	Delta-type opioid receptor (Rattus norvegicus, UniProt P33533)	7.60
Cc1cc(C)c(C[C@H](NC(=O)[C@H](Cc2ccccc2)NC(=O)[C@@H]2CCCN2C(=O)[C@@H](N)Cc2c(C)cc(O)cc2C)C(N)=O)c(C)c1	Delta-type opioid receptor (Rattus norvegicus, UniProt P33533)	7.61
Cc1cccc(C)c1C[C@H](NC(=O)[C@H](Cc1ccccc1)NC(=O)[C@@H]1CCCN1C(=O)[C@@H](N)Cc1c(C)cc(O)cc1C)C(N)=O	Delta-type opioid receptor (Rattus norvegicus, UniProt P33533)	7.40
Cc1cccc(C)c1C[C@H](NC(=O)[C@@H]1CCCN1C(=O)[C@@H](N)Cc1c(C)cc(O)cc1C)C(N)=O (HELM PEPTIDE1{[Cc1cc(O)cc(C)c1C[C@H](N)C(=O)[*:2]].P.[Cc1cccc(C)c1C[C@H](N[*:1])C(=O)[*:2]].[am]}$$$$V2.0)	Delta-type opioid receptor (Rattus norvegicus, UniProt P33533)	7.48

Return pKi (reported value) for this compound: Cc1cc(O)cc(C)c1C[C@H](N)C(=O)N1CCC[C@H]1C(=O)N[C@@H](Cc1c[nH]c2ccccc12)C(N)=O (HELM PEPTIDE1{[Cc1cc(O)cc(C)c1C[C@H](N)C(=O)[*:2]].P.W.[am]}$$$$V2.0)
7.18

Return pKi (reported value) for this compound: Cc1cc(O)cc(C)c1C[C@H](N)C(=O)N1CCC[C@H]1C(=O)N[C@@H](Cc1cccc2ccccc12)C(N)=O (HELM PEPTIDE1{[Cc1cc(O)cc(C)c1C[C@H](N)C(=O)[*:2]].P.[O=C([C@H](Cc1cccc2ccccc12)N[*:1])[*:2]].[am]}$$$$V2.0)
6.92

Please report the measured pKi for Cc1cc(O)cc(C)c1C[C@H](NC(=O)[C@H](Cc1ccccc1)NC(=O)[C@@H]1CCCN1C(=O)[C@@H](N)Cc1c(C)cc(O)cc1C)C(N)=O (HELM PEPTIDE1{[Cc1cc(O)cc(C)c1C[C@H](N)C(=O)[*:2]].P.F.[Cc1cc(O)cc(C)c1C[C@H](N[*:1])C(=O)[*:2]].[am]}$$$$V2.0)
7.06

Give the value of pKi reported for the following: "Cc1cc(C)c(C[C@H](NC(=O)[C@H](Cc2c(C)cc(C)cc2C)NC(=O)[C@@H]2CCCN2C(=O)[C@@H](N)Cc2c(C)cc(O)cc2C)C(N)=O)c(C)c1"
8.79

The reported numbers originate from ChEMBL document CHEMBL3232856.
